These measurements were taken from patent US7462600B2.

test system: Haemophilus influenzae 1218; experiment: MIC, microtiter broth dilution (NCCLS M100-S14), H. influenzae 1218 (susceptible); assay type: cell-based; settings: Haemophilus influenzae 1218
Param label: returns TRUE when MIC H. influenzae 1218 < 1 µg/mL, returns FALSE otherwise, including exact equality.

Asked: Lab log: compare recorded MIC H. influenzae 1218 with 1 µg/mL; is it strictly lower for CCC1OC(=O)C(C)C(=O)C(C)C(OC2OC(C)CC(N(C)C)C2O)C(C)(OC)CC(C)C(=O)C(C)C2N(C3CN(S(=O)(=O)c4ccccc4C#N)C3)C(=O)OC12C (centres unmarked) ?
Given back: TRUE

Asked: Lab log: compare recorded MIC H. influenzae 1218 with 1 µg/mL; is it strictly lower for CCC1OC(=O)C(C)C(=O)C(C)C(OC2OC(C)CC(N(C)C)C2O)C(C)(OC)CC(C)C(=O)C(C)C2N(C3CN(S(=O)(=O)c4ccc(OC)c5ncccc45)C3)C(=O)OC12C (centres unmarked) ?
Given back: TRUE

Asked: Lab log: compare recorded MIC H. influenzae 1218 with 1 µg/mL; is it strictly lower for CC[C@H]1OC(=O)[C@H](C)[C@@H](OC(=O)N2CCCC2)[C@H](C)[C@@H](O[C@@H]2O[C@H](C)C[C@H](N(C)C)[C@H]2O)[C@](C)(OC)C[C@@H](C)C(=O)[C@H](C)[C@H]2N(CC3CN(Cc4nc5ccccc5s4)C3)C(=O)O[C@]12C ?
Given back: FALSE

Asked: Lab log: compare recorded MIC H. influenzae 1218 with 1 µg/mL; is it strictly lower for CCC1OC(=O)C(C)C(=O)C(C)C(OC2OC(C)CC(N(C)C)C2O)C(C)(OC)CC(C)C(=O)C(C)C2N(C3CN(S(=O)(=O)c4cccc5cccnc45)C3)C(=O)OC12C (centres unmarked) ?
Given back: TRUE

Asked: Lab log: compare recorded MIC H. influenzae 1218 with 1 µg/mL; is it strictly lower for CCC1OC(=O)C(C)C(=O)C(C)C(OC2OC(C)CC(N(C)C)C2O)C(C)(OC)CC(C)C(=O)C(C)C2N(CC3CN(C(=O)c4cccnc4)C3)C(=O)OC12C (centres unmarked) ?
Given back: FALSE

Asked: Lab log: compare recorded MIC H. influenzae 1218 with 1 µg/mL; is it strictly lower for CCC1OC(=O)C(C)(F)C(=O)C(C)C(OC2OC(C)CC(N(C)C)C2O)C(C)(OC)CC(C)C(=O)C(C)C2N(C3CN(C(C)c4ccnc5ncccc45)C3)C(=O)OC12C (centres unmarked) ?
Given back: TRUE

Asked: Lab log: compare recorded MIC H. influenzae 1218 with 1 µg/mL; is it strictly lower for CCC1OC(=O)C(C)C(=O)C(C)C(OC2OC(C)CC(N(C)C)C2O)C(C)(OC)CC(C)C(=O)C(C)C2N(C3CN(S(=O)(=O)c4ccc(OC)cc4OC)C3)C(=O)OC12C (centres unmarked) ?
Given back: TRUE

Asked: Lab log: compare recorded MIC H. influenzae 1218 with 1 µg/mL; is it strictly lower for CCC1OC(=O)C(C)C(=O)C(C)C(OC2OC(C)CC(N(C)C)C2O)C(C)(OC)CC(C)C(=O)C(C)C2N(C3CN(Cc4ccccn4)C3)C(=O)OC12C (centres unmarked) ?
Given back: TRUE

Asked: Lab log: compare recorded MIC H. influenzae 1218 with 1 µg/mL; is it strictly lower for CCC1OC(=O)C(C)C(=O)C(C)C(OC2OC(C)CC(N(C)C)C2O)C(C)(OC)CC(C)C(=O)C(C)C2N(C3CN(S(=O)(=O)c4cccc5nccnc45)C3)C(=O)OC12C (centres unmarked) ?
Given back: TRUE

Asked: Lab log: compare recorded MIC H. influenzae 1218 with 1 µg/mL; is it strictly lower for CCC1OC(=O)C(C)C(=O)C(C)C(OC2OC(C)CC(N(C)C)C2O)C(C)(OC)CC(C)C(=O)C(C)C2N(C3CN(C(=O)c4ccc(-n5cccn5)cc4)C3)C(=O)OC12C (centres unmarked) ?
Given back: FALSE

Asked: Lab log: compare recorded MIC H. influenzae 1218 with 1 µg/mL; is it strictly lower for CC[C@H]1OC(=O)[C@H](C)C(=O)[C@H](C)[C@@H](O[C@@H]2O[C@H](C)C[C@H](N(C)C)[C@H]2O)[C@](C)(OC)C[C@@H](C)C(=O)[C@H](C)[C@H]2N(CC3(C)CN(Cc4c[nH]c5ccc(F)cc45)C3)C(=O)O[C@]12C ?
Given back: TRUE

Asked: Lab log: compare recorded MIC H. influenzae 1218 with 1 µg/mL; is it strictly lower for CCC1OC(=O)C(C)C(=O)C(C)C(OC2OC(C)CC(N(C)C)C2O)C(C)(OC)CC(C)C(=O)C(C)C2N(C3CN(Cc4c(F)cccc4OC)C3)C(=O)OC12C (centres unmarked) ?
Given back: FALSE

Asked: Lab log: compare recorded MIC H. influenzae 1218 with 1 µg/mL; is it strictly lower for CCC1OC(=O)C(C)C(=O)C(C)C(OC2OC(C)CC(N(C)C)C2O)C(C)(OC)CC(C)C(=O)C(C)C2N(CC3CN(C(=O)c4cc5ccccc5cn4)C3)C(=O)OC12C.O=CO (centres unmarked) ?
Given back: FALSE

Asked: Lab log: compare recorded MIC H. influenzae 1218 with 1 µg/mL; is it strictly lower for CCC1OC(=O)C(C)C(=O)C(C)C(OC2OC(C)CC(N(C)C)C2O)C(C)(OC)CC(C)C(=O)C(C)C2N(C3CN(S(=O)(=O)c4cccc(-c5cc[nH]n5)c4)C3)C(=O)OC12C (centres unmarked) ?
Given back: TRUE
